- assay.system: recombinant wildtype and mutated PPO (Amaranthus PPO2: PPX2L_WC SEQ ID NO 2, PPX2L_AC SEQ ID NO 4, dG210 SEQ ID NO 6 & 8) (Amaranthus tuberculatus, UniProt Q0NZW9, D133A/F420M/R128C)
- Sequence (Q0NZW9 1-534 R128C/D133A/F420M): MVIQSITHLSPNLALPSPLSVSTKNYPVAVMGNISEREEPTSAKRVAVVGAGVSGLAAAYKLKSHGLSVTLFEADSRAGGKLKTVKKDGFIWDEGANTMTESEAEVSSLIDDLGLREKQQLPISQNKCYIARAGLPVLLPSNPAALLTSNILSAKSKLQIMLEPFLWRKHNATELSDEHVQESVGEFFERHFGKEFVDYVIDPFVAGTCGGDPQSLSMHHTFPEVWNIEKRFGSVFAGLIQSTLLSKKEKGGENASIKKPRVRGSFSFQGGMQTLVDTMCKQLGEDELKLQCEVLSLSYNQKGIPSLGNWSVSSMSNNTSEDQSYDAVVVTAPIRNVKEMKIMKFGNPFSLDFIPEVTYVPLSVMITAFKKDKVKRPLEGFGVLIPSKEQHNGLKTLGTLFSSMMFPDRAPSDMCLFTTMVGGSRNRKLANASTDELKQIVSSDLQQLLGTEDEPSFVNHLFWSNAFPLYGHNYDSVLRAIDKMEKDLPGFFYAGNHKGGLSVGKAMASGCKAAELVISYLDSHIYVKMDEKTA
- assay: biochemical
- condition.label: IC50 (M)
Items are presented alongside their recorded IC50.
measure: IC50 (M)

compound=C#CCN1C(=O)C(F)(F)Oc2cc(F)c(-n3c(=O)cc(C(F)(F)F)n(C)c3=O)cc21 value_units=M result_modifier== recorded_result=1.11e-08
compound="CCOC(=O)COc1ncccc1Oc1cc(-n2c(=O)cc(C(F)(F)F)n(C)c2=O)c(F)cc1Cl [A.13]" value_units=M result_modifier== recorded_result=6.95e-08
compound=C#CCN1C(=O)C(F)(F)Oc2cc(F)c(N3C(=O)C4=C(CCCC4)C3=O)cc21 value_units=M result_modifier== recorded_result=3.57e-06
compound="CCOC(=O)C(C)OC(=O)c1cc(Oc2ccc(C(F)(F)F)cc2Cl)ccc1[N+](=O)[O-] (stereo not drawn) [Lactofen, lactofen]" value_units=M result_modifier== recorded_result=6.39e-08
compound="O=C(O)c1cc(Oc2ccc(C(F)(F)F)cc2Cl)ccc1[N+](=O)[O-] [ACIFLUORFEN]" value_units=M result_modifier=≥ recorded_result=1e-05
compound="CCOc1cc(Oc2ccc(C(F)(F)F)cc2Cl)ccc1[N+](=O)[O-] [OXIFLUORFEN]" value_units=M result_modifier== recorded_result=4.16e-07
compound="COC(Oc1ccccc1Oc1cc(-n2c(=O)cc(C(F)(F)F)n(C)c2=O)c(F)cc1Cl)C(=O)OC1CCCCC1 (stereo not drawn)" value_units=M result_modifier== recorded_result=2.98e-08
compound="C=CCOC(=O)C(C)(C)OC(=O)c1cc(-n2c(=O)cc(C(F)(F)F)n(C)c2=O)ccc1Cl [BUTAFENACIL]" value_units=M result_modifier== recorded_result=2.31e-08
compound="CCOC(=O)C(Cl)Cc1cc(-n2nc(C)n(C(F)F)c2=O)c(F)cc1Cl (stereo not drawn) [CARFENTRAZONE-ETHYL]" value_units=M result_modifier== recorded_result=2.99e-08
compound="COC(=O)C(OC)Oc1ccccc1Oc1cc(-n2c(=O)cc(C(F)(F)F)n(C)c2=O)c(F)cc1Cl (stereo not drawn)" value_units=M result_modifier== recorded_result=1.16e-08
compound="CS(=O)(=O)NC(=O)c1cc(Oc2ccc(C(F)(F)F)cc2Cl)ccc1[N+](=O)[O-] [Fomesafen, fomesafen]" value_units=M result_modifier== recorded_result=1.1e-05
compound="C#CCN1C(=O)COc2cc(F)c(N3C(=O)C4=C(CCCC4)C3=O)cc21 [Flumioxazin, flumioxazin]" value_units=M result_modifier=≥ recorded_result=1e-05
